- system_tested: paLpxC (Pseudomonas aeruginosa (strain ATCC 15692 / DSM 22644 / CIP 104116 / JCM 14847 / LMG 12228 / 1C / PRS 101 / PAO1))
- test_details: biochemical
- Format: binding
- experimental_context: read-out: Kon (μM^−1s^−1)
readout_label: kon (µM⁻¹ s⁻¹)
Write it as a number; the unit µM⁻¹ s⁻¹ goes unstated.

Input CC(CCn1ccc(-c2ccc(-c3cn(CC4CCCCC4)nn3)cc2)cc1=O)(C(=O)NO)S(C)(=O)=O (racemic) . Output kon: 31

Input CC(CCn1ccc(-c2ccc(-c3cn(CCO)nn3)cc2)cc1=O)(C(=O)NO)S(C)(=O)=O (racemic) . Output kon: 59.6

Input CC(CCn1ccc(-c2ccc(-c3cn(Cc4cccnc4)nn3)cc2)cc1=O)(C(=O)NO)S(C)(=O)=O (racemic) . Output kon: 42.8

Input `COc1ccc(-c2ccc(CNC3(C(=O)NO)CCS(=O)(=O)CC3)cc2)c(F)c1` . Output kon: 16.6

Input CC(CCn1ccc(-c2ccc(-c3cn(Cc4ccccn4)nn3)cc2)cc1=O)(C(=O)NO)S(C)(=O)=O (racemic) . Output kon: 37.2

Input CC(CCn1ccc(-c2ccc(-c3cn(Cc4ccc([N+](=O)[O-])cc4)nn3)cc2)cc1=O)(C(=O)NO)S(C)(=O)=O (racemic) . Output kon: 30.7

Input CC(CCn1ccc(-c2ccc(CN3CCOCC3)cc2)cc1=O)(C(=O)NO)S(C)(=O)=O (racemic) . Output kon: 36.4

Input CC(CCn1ccc(-c2ccc(NC(=O)Cc3ccccc3)cc2)cc1=O)(C(=O)NO)S(C)(=O)=O (racemic) . Output kon: 44.8

Input `COc1ccc(-c2ccc(CNC3(C(=O)NO)CCS(=O)(=O)CC3)cc2F)cc1` . Output kon: 34.5

====

Assign koff to each entry below.
- system_tested: paLpxC (Pseudomonas aeruginosa (strain ATCC 15692 / DSM 22644 / CIP 104116 / JCM 14847 / LMG 12228 / 1C / PRS 101 / PAO1), UniProt P47205)
- Sequence (P47205 1-299): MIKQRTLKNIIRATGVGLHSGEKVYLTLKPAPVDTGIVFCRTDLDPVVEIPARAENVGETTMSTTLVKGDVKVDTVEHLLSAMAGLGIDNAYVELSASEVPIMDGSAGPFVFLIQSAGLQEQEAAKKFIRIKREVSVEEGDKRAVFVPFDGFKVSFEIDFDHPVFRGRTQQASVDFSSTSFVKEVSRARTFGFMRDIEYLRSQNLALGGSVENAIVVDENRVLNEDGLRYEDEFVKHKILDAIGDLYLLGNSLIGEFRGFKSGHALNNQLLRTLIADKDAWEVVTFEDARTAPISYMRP
- test_details: biochemical
- Format: binding
- experimental_context: read-out: Koff (s^−1)
Write it as a number; the unit s⁻¹ goes unstated.

Input CC(CCn1ccc(-c2ccc(-c3cn(Cc4cccnc4)nn3)cc2)cc1=O)(C(=O)NO)S(C)(=O)=O (racemic) . Output koff: 0.00014

Input C=CCn1cc(-c2ccc(-c3ccn(CCC(C)(C(=O)NO)S(C)(=O)=O)c(=O)c3)cc2)nn1 (racemic) . Output koff: 0.00022

Input CC(CCn1ccc(-c2ccc(-c3cn(CC4CC4)nn3)cc2)cc1=O)(C(=O)NO)S(C)(=O)=O (racemic) . Output koff: 0.00025

Input CC(CCn1ccc(-c2ccc(-c3cn(CC4CCCCC4)nn3)cc2)cc1=O)(C(=O)NO)S(C)(=O)=O (racemic) . Output koff: 0.00017

Input `COc1ccc(-c2ccc(CNC3(C(=O)NO)CCS(=O)(=O)CC3)cc2F)cc1` . Output koff: 0.00049

Input CC(CCn1ccc(-c2ccc(-c3cn(Cc4ccncn4)nn3)cc2)cc1=O)(C(=O)NO)S(C)(=O)=O (racemic) . Output koff: 0.00017

Input CC(CCn1ccc(-c2ccc(-c3cn(Cc4ccc(F)cc4)nn3)cc2)cc1=O)(C(=O)NO)S(C)(=O)=O (racemic) . Output koff: 0.00025

Input CC(CCn1ccc(-c2ccc(-c3cn(CC45CC(C4)C5)nn3)cc2)cc1=O)(C(=O)NO)S(C)(=O)=O (racemic) . Output koff: 0.00015

Input CC(CCn1ccc(-c2ccc(C(=O)NCc3ccccc3)cc2)cc1=O)(C(=O)NO)S(C)(=O)=O (racemic) . Output koff: 0.0021

Input CC(CCn1ccc(-c2ccc(-c3cn(CCO)nn3)cc2)cc1=O)(C(=O)NO)S(C)(=O)=O (racemic) . Output koff: 0.00018

Input `COc1ccc(-c2ccc(CNC3(C(=O)NO)CCS(=O)(=O)CC3)cc2)c(F)c1` . Output koff: 0.00053

Input CC(CCn1ccc(-c2ccc(-c3cn(Cc4ccccc4)nn3)cc2)cc1=O)(C(=O)NO)S(C)(=O)=O (racemic) . Output koff: 0.00032

Input CC(CCn1ccc(-c2ccc(-c3cn(Cc4ccccn4)nn3)cc2)cc1=O)(C(=O)NO)S(C)(=O)=O (racemic) . Output koff: 0.00016

Input CC(CCn1ccc(-c2ccc(NC(=O)Cc3ccccc3)cc2)cc1=O)(C(=O)NO)S(C)(=O)=O (racemic) . Output koff: 0.0043

Input CC(CCn1ccc(-c2ccc(CN3CCOCC3)cc2)cc1=O)(C(=O)NO)S(C)(=O)=O (racemic) . Output koff: 0.0035

Input CC(CCn1ccc(-c2ccc(-c3cn(Cc4ccc([N+](=O)[O-])cc4)nn3)cc2)cc1=O)(C(=O)NO)S(C)(=O)=O (racemic) . Output koff: 0.00021

These measurements were taken from patent US20250099433A1.
